- TARGET OF ASSAY: p110α (Homo sapiens)
- Sequence (P42336 whole entry, species assumed): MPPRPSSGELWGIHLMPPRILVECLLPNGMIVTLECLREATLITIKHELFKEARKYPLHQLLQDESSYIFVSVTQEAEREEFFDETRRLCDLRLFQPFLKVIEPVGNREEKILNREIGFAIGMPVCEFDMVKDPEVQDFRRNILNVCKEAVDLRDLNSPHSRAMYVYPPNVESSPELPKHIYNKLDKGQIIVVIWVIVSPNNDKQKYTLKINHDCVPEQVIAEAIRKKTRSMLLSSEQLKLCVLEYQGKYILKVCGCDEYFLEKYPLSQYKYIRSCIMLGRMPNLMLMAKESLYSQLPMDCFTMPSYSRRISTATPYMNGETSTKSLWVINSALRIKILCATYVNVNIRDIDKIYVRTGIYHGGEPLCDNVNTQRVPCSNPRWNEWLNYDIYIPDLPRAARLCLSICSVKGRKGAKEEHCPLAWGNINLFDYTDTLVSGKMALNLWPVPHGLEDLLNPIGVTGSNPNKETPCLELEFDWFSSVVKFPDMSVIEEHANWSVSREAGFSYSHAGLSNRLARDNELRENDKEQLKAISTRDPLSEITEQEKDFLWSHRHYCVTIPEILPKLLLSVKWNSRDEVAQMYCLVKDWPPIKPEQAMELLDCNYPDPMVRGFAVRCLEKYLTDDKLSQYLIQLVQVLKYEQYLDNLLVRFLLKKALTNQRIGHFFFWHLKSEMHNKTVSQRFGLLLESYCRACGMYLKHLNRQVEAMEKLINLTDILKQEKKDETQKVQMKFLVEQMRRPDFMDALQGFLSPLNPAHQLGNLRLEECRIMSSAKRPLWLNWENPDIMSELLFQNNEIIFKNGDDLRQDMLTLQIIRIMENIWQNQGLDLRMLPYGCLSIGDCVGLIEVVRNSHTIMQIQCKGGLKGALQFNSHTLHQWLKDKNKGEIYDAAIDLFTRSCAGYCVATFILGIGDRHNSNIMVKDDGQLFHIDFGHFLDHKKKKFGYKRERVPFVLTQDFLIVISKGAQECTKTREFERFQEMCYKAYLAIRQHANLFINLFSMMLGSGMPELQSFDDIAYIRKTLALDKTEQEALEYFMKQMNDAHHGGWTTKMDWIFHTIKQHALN
- Sequence (P27986 whole entry partner, species assumed): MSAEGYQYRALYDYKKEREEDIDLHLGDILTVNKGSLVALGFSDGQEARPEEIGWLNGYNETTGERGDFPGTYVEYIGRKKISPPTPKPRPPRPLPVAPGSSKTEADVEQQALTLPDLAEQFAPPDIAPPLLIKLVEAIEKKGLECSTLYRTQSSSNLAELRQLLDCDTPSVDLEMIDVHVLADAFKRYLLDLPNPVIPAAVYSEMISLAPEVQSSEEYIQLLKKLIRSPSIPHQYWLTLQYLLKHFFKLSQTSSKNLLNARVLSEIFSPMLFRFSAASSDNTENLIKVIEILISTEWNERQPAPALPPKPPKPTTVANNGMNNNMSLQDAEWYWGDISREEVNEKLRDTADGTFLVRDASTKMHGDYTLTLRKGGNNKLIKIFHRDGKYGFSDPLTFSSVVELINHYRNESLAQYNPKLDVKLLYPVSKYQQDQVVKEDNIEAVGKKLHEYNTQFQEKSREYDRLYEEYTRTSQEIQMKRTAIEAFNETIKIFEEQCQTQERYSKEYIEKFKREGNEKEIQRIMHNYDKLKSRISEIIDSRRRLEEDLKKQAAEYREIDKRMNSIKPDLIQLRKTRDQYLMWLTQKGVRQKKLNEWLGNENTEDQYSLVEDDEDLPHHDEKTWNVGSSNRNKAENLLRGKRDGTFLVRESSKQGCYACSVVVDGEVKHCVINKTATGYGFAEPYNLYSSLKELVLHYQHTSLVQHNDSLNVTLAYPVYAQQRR
- EXPERIMENTAL PROTOCOL: ex-vivo PI3 kinase assay using recombinant PI3K
- Format: biochemical
- CONDITIONS: ATP at Km
PROPERTY LABEL: IC50 (nM)
Express it in nM; write the number only.

Query: I'd like to know its IC50. The compound in question is Cc1ccccc1-n1c(C(C)Nc2nc(N)nc3nc[nH]c23)nc2cccc(C)c2c1=O (stereo not shown)
Result: 115
